Tested on: GR complex
experiment notes: modulation of [35S]TBPS binding in rat cerebral cortex P2 homogenate
Design: species or system Sprague-Dawley rats; unit not given here
details: maximum inhibition of [35S]TBPS binding; I* = Inactive
Description: We performed several experiments to determine the nature of the modulation of [^35S]TBPS as affected by the compounds of the invention. These procedures were performed as follows: Brains from male Sprague-Dawley rats were removed immediately following sacrifice and the cerebral cortices dissected over ice. […] Briefly, the cortices were gently homogenized in 0.32 M sucrose followed by centrifugation at 1000 x g for 10 minutes. The supernatant was collected and centrifuged at 9000 x g for 20 minutes. […]
Measured IMAX, listed per entry for reference.
measured endpoint: IMAX

[[record]]
compound = "C=C[C@@]1(O)CC[C@@]2(C)[C@@H](CC[C@@H]3[C@@H]2CC[C@]2(C)[C@@H](C(=O)CO)CC[C@@H]32)C1"
study_system = "GR complex"
measured_endpoint = "IMAX"
observed_value = 101

[[record]]
compound = "CC(=O)OCC(=O)[C@H]1CC[C@H]2[C@@H]3CC[C@H]4C[C@](C)(O)CC[C@]4(C)[C@H]3CC[C@]12C"
study_system = "GR complex"
measured_endpoint = "IMAX"
observed_value = 93

[[record]]
compound = "C[C@]12CC[C@@H](O)C[C@@H]1CC[C@@H]1[C@@H]2CC[C@]2(C)[C@@H](C(=O)CO)CC[C@@H]12 [3α,21-dihydroxy-5α-pregnan-20-one, reference compound]"
study_system = "GR complex"
measured_endpoint = "IMAX"
observed_value = 100

[[record]]
compound = "C[C@@]1(O)CC[C@@]2(C)[C@@H](CC[C@@H]3[C@@H]2CC[C@]2(C)[C@@H](C(=O)CO)CC[C@@H]32)C1"
study_system = "GR complex"
measured_endpoint = "IMAX"
observed_value = 96

[[record]]
compound = "C#C[C@@]1(O)CC[C@@]2(C)[C@H](CC[C@@H]3[C@@H]2CC[C@]2(C)[C@@H](C(=O)CO)CC[C@@H]32)C1"
study_system = "GR complex"
measured_endpoint = "IMAX"
observed_value = 104

[[record]]
compound = "C#C[C@@]1(O)CC[C@@]2(C)[C@@H](CC[C@@H]3[C@@H]2CC[C@]2(C)[C@@H](C(C)=O)CC[C@@H]32)C1 [3α-hydroxy-3β-ethynyl-5α-pregnan-20-one, 3β-Ethynyl-3α-hydroxy-5α-pregnan-20-one]"
study_system = "GR complex"
measured_endpoint = "IMAX"
observed_value = 91

[[record]]
compound = "C[C@]12CC[C@](O)(C(F)(F)F)C[C@H]1CC[C@@H]1[C@@H]2CC[C@]2(C)[C@@H](C(=O)COC(=O)CCC(=O)[O-])CC[C@@H]12.[Na+]"
study_system = "GR complex"
measured_endpoint = "IMAX"
observed_value = 99


###

Measured pIC50, listed per entry for reference.
study system: GR complex
experiment notes: modulation of [35S]TBPS binding in rat cerebral cortex P2 homogenate
Design: species or system Sprague-Dawley rats
details: concentration of compounds to inhibit 50% of control [35S]TBPS binding; 2 nM [35S]TBPS, 25°C, 90 minutes; unit inferred
pIC50: −log10 of the molar value.
measured endpoint: pIC50

[[record]]
compound = "C[C@]12CC[C@](O)(CF)C[C@@H]1CC[C@@H]1[C@@H]2CC[C@]2(C)[C@@H](C(=O)CO)CC[C@@H]12"
measured_endpoint = "pIC50"
reading_qualifier = "="
observed_value = 6.23

[[record]]
compound = "CC(=O)[C@H]1CC[C@H]2[C@@H]3CC[C@H]4C[C@](C)(O)CC[C@]4(C)[C@H]3C=C[C@]12C"
measured_endpoint = "pIC50"
reading_qualifier = "="
observed_value = 6.62

[[record]]
compound = "C=C(C)C#CC1(O)CCC2(C)C(CCC3C2CCC2(C)C(C(C)=O)CCC32)C1 (stereo not shown)"
measured_endpoint = "pIC50"
reading_qualifier = "="
observed_value = 7.06

[[record]]
compound = "CC(O)C1CCC2C3CCC4CC(C)(O)CCC4(C)C3CCC12C (stereo not drawn) [3α,20β-dihydroxy-3β-methyl-5β-pregnane]"
measured_endpoint = "pIC50"
reading_qualifier = "="
observed_value = 6.34

[[record]]
compound = "CC(=O)OCC(=O)[C@H]1CC[C@H]2[C@@H]3CC[C@@H]4C[C@H](O)CC[C@]4(C)[C@H]3CC[C@]12C"
measured_endpoint = "pIC50"
reading_qualifier = "="
observed_value = 6.92

[[record]]
compound = "C#CC1(O)CCC2(C)C(CCC3C2CCC2(C)C(C(C)O)CCC32)C1 (stereo not drawn) [3α,20α-dihydroxy-3β-ethynyl-5α-pregnane, 3β-Ethynyl-3α,20α-dihydroxy-5α-pregnane]"
measured_endpoint = "pIC50"
reading_qualifier = "="
observed_value = 6.69

[[record]]
compound = "C=C[C@@]1(O)CC[C@@]2(C)[C@H](CC[C@@H]3[C@@H]2CC[C@]2(C)[C@@H](C(C)=O)CC[C@@H]32)C1 [3β-ethenyl-3α-hydroxy-5β-pregnan-20-one]"
measured_endpoint = "pIC50"
reading_qualifier = "="
observed_value = 7.34

[[record]]
compound = "C=C(C)C#C[C@@]1(O)CC[C@@]2(C)[C@H](CC[C@@H]3[C@@H]2CC[C@]2(C)[C@@H](C(C)=O)CC[C@@H]32)C1"
measured_endpoint = "pIC50"
reading_qualifier = "="
observed_value = 7.62

[[record]]
compound = "CC(=O)[C@H]1CC[C@H]2[C@@H]3CC[C@@H]4C[C@@](O)(C(F)(F)F)CC[C@]4(C)[C@H]3C=C[C@]12C"
measured_endpoint = "pIC50"
reading_qualifier = "="
observed_value = 6.69

[[record]]
compound = "CC(=O)[C@H]1CC[C@H]2[C@@H]3CC[C@H]4C[C@H](O)CC[C@]4(C)[C@H]3CC[C@]12C [3α-hydroxy-5α-pregnan-20-one, reference compound]"
measured_endpoint = "pIC50"
reading_qualifier = "="
observed_value = 7.43

[[record]]
compound = "CC(=O)[C@H]1CC[C@H]2[C@@H]3CCC4=CC(=O)CC[C@]4(C)[C@H]3CC[C@]12C [progesterone, reference compound]"
measured_endpoint = "pIC50"
reading_qualifier = "<"
observed_value = 6.00

[[record]]
compound = "C[C@]12CC[C@H]3[C@@H](CC[C@@H]4C[C@@](O)(C(F)(F)F)CC[C@@H]43)[C@@H]1CC[C@@H]2C(=O)CO"
measured_endpoint = "pIC50"
reading_qualifier = "="
observed_value = 6.61

[[record]]
compound = "C[C@]12CC[C@](O)(C(F)(F)F)C[C@H]1CC[C@@H]1[C@@H]2CC[C@]2(C)[C@@H](C(=O)COC(=O)CCC(=O)O)CC[C@@H]12"
measured_endpoint = "pIC50"
reading_qualifier = "="
observed_value = 6.19

